# SYSTEM_UNDER_TEST: human sodium glucose co-transporter 2 (Homo sapiens (Human), UniProt P31639)
# Sequence (P31639 whole entry): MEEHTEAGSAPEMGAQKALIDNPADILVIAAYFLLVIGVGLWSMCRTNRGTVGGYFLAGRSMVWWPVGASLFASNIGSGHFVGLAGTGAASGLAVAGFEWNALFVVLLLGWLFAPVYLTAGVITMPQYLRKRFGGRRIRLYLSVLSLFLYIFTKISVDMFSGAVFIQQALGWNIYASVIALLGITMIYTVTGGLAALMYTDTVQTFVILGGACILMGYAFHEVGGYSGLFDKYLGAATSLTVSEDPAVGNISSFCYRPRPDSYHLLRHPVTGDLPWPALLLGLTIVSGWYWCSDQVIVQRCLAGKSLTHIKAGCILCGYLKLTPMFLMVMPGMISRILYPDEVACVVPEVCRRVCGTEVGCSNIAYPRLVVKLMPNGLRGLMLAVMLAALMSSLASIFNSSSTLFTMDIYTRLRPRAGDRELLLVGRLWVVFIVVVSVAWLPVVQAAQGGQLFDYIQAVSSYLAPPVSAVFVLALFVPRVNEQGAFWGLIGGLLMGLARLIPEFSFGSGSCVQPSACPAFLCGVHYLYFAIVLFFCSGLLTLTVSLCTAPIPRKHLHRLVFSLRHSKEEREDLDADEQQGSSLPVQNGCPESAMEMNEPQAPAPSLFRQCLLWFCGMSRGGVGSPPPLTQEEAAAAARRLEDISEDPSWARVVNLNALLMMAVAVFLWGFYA
# EXPERIMENTAL_PROTOCOL: SGLT-2 assay: 14C-AMG uptake in CHO-hSGLT2 or HEK-hSGLT2 cells
# Assay type: cell-based
# RUN_PARAMETERS: n = 1-4, cells stably transfected with hSGLT2, read-out: SGLT2 IC50 nM (n = 1-4)
Criterion: IC50 strictly less than 0.9 nM. Met: True. Not met: False.

Recorded results for 5 compounds are shown here.
[
  {
    "SMILES_ENTRY": "OC[C@H]1O[C@@H](c2ccc(F)c(Cc3ccc4c(c3)NCCO4)c2)[C@H](O)[C@@H](O)[C@@H]1O",
    "ASSIGNED_CLASS": "False"
  },
  {
    "SMILES_ENTRY": "O=C1CCOc2ccc(Cc3cc([C@@H]4O[C@H](CO)[C@@H](O)[C@H](O)[C@H]4O)ccc3Cl)cc21",
    "ASSIGNED_CLASS": "False"
  },
  {
    "SMILES_ENTRY": "CCN1CCOc2cc(Cc3cc([C@@H]4O[C@H](CO)[C@@H](O)[C@H](O)[C@H]4O)ccc3Cl)ccc21",
    "ASSIGNED_CLASS": "False"
  },
  {
    "SMILES_ENTRY": "CC1(C)CNc2cc(Cc3cc([C@@H]4O[C@H](CO)[C@@H](O)[C@H](O)[C@H]4O)ccc3Cl)ccc2O1",
    "ASSIGNED_CLASS": "True"
  },
  {
    "SMILES_ENTRY": "OC[C@H]1O[C@@H](c2ccc(Cl)c(Cc3ccc4c(c3)NCCO4)c2)[C@H](O)[C@@H](O)[C@@H]1O",
    "ASSIGNED_CLASS": "True"
  }
]

Problem: Dear colleague, could you confirm whether IC50 of `OC[C@H]1O[C@@H](c2ccc(Cl)c(Cc3ccc4c(c3)CCCO4)c2)[C@H](O)[C@@H](O)[C@@H]1O` falls below 0.9 nM? Thanks.
Solution: True
